Values compiled from ChEMBL document CHEMBL1146881.

- TARGET_DESC: RNA-directed RNA polymerase (Hepacivirus hominis, UniProt O39930)
- Sequence (O39930 whole entry): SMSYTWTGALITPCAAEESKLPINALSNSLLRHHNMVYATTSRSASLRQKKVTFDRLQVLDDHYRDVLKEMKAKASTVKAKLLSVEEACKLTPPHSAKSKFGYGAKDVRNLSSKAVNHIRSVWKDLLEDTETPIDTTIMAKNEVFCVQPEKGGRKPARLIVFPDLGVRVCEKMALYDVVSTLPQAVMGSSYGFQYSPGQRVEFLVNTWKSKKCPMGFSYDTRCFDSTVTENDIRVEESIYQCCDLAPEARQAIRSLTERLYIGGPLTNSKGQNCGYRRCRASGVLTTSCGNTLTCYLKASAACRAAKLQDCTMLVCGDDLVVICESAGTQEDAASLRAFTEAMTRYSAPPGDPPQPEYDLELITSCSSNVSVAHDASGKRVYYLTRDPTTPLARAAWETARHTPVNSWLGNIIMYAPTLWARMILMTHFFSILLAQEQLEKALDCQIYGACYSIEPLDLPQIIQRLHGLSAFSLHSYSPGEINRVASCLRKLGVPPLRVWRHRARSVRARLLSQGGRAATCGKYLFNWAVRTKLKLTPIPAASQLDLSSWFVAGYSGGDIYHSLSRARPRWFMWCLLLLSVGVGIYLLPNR
- EXPERIMENT_SUMMARY: Inhibition of HCV 1b NS5B delta21 RNA dependent RNA polymerase by SPA
PROPERTY_LABEL: IC50 (nM)
Numbers only, in nM.

O=C(O)c1ccc2c(C3CCCCC3)c(-c3ccccn3)[nH]c2c1    230
O=C(O)c1ccc2c(c1)nc(-c1ccoc1)n2C1CCCC1    2200

Each compound below has a reported value. Please supply its IC50.
1. Cc1c(-c2ccccc2)n(C2CCCCC2)c2ccc(C(=O)O)cc12
2. O=C(O)c1ccc2c(C3CCCCC3)c(-c3ccoc3)[nH]c2c1

Result:
180
30
